- Tested on: P12-Ichikawa
- assay details: cell viability relative to DMSO control; higher = less cytotoxic
- assay setup: HPLM + 10% dialyzed FBS; 48 h; 0.19 µM
Recorded measurements of cell viability, one per entry
Report as a plain number; the unit % is understood.

Return cell viability (reported value) for this compound: `CCc1cc2c(cc1N1CCC(N3CCOCC3)CC1)C(C)(C)c1[nH]c3cc(C#N)ccc3c1C2=O`
130

Return cell viability (reported value) for this compound: `O=C1CCC[C@@H]2[C@H]3CCCN4CCC[C@@H](CN12)[C@@H]34`
92.1

***
Return cell viability (reported value) for this compound: `O=C(Nc1c[nH]nc1-c1nc2cc(CN3CCOCC3)ccc2[nH]1)NC1CC1`
12.7

Return cell viability (reported value) for this compound: `O=C(CCc1ccc(O)cc1)c1c(O)cc(O)cc1O`
111
